pIC50: −log10 of the molar value.
Reported pIC50 values, PI3K α (Homo sapiens).

[
  {
    "Compound": "C=CC(=O)Nc1cccc(-c2csc3c(=O)cc(N4CCNCC4)oc23)c1.O=C(O)C(F)(F)F [Compound 3]",
    "pIC50": "< 4.30"
  },
  {
    "Compound": "C=CC(=O)N1CCOc2ccc(-c3csc4c(=O)cc(N5CCNCC5)oc34)cc21 [Compound 5]",
    "pIC50": "4.52 to 5.00"
  },
  {
    "Compound": "C=CS(=O)(=O)N1CCOc2ccc(-c3csc4c(=O)cc(N5CCOCC5)oc34)cc21 [Compound 21]",
    "pIC50": "> 6.00"
  }
]

The recorded pIC50 for C=CC(=O)N1CCOc2ccc(-c3csc4c(=O)cc(N5CCOCC5)oc34)cc21 [Compound 7] is > 6.00

Looking up CC#CC(=O)Nc1cccc(-c2csc3c(=O)cc(N4CCOCC4)oc23)c1 [Compound 12] , I see its pIC50 listed as > 6.00
